Where do these numbers come from? They come from BigSolDB 2.1.

details: in 2-butanone, 293.15 K
quantity kind: solubility (mole fraction)

Return value of solubility (mole fraction) for input Clc1ccc2c(c1)Nc1ccccc1S2 , no commentary.
0.0427

* * *

conditions: in acetonitrile, 310.65 K
quantity kind: solubility (mole fraction)
Answer using only a numeral; do not append any unit.

Return value of solubility (mole fraction) for input Clc1ccc2c(c1)Nc1ccccc1S2 , no commentary.
0.0071

* * *

conditions: in acetone, 313.15 K
quantity kind: solubility (mole fraction)
Answer using only a numeral; do not append any unit.

Return value of solubility (mole fraction) for input Clc1ccc2c(c1)Nc1ccccc1S2 , no commentary.
0.0518

* * *

settings: in isopropanol, 315.65 K
quantity kind: solubility (mole fraction)

Return value of solubility (mole fraction) for input Clc1ccc2c(c1)Nc1ccccc1S2 , no commentary.
0.00657
